Target: PAK6 (human) (UniProt Q9NQU5)
Sequence (Q9NQU5 whole entry, looked up): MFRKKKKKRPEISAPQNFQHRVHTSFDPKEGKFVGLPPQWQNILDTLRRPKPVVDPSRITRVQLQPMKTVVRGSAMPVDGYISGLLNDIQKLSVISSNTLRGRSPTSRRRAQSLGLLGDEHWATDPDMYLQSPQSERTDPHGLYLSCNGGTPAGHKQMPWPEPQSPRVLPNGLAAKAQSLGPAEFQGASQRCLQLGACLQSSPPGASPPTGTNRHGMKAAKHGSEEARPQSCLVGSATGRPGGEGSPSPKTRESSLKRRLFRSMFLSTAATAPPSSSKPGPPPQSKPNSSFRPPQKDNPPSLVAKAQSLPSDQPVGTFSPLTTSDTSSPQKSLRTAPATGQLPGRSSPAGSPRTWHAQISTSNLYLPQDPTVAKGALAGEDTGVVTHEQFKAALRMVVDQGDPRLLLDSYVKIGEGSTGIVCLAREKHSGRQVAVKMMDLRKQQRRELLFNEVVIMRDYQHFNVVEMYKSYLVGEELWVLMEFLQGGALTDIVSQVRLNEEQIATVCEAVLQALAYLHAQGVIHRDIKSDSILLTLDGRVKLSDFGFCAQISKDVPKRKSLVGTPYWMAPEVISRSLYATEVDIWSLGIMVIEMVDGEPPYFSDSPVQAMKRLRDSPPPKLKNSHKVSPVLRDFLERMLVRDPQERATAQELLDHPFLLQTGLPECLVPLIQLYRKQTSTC
Assay: radiometric filter-binding kinase assay
Settings: compound 1.0 µM
measured_quantity: residual activity (%)

Query: Quick check: residual activity of `O=C(NCCCNc1nc(Nc2cccc(CN3CCOCC3)c2)ncc1C1CC1)C1CCC1` ?
Response: 84

Query: Quick check: residual activity of `CN(C)C/C=C/C(=O)Nc1cccc(C(=O)Nc2ccc(Nc3nccc(-c4cccnc4)n3)cc2)c1` ?
Response: 103

Query: Quick check: residual activity of `Cn1nc(Nc2ccc(F)cc2)c2c(N)ncnc21` ?
Response: 113

Query: Quick check: residual activity of `COc1cc(C(=O)N2CCOCC2)c(F)cc1Nc1ncc(C(F)(F)F)c(NC2CC2)n1` ?
Response: 94

Query: Quick check: residual activity of `CNc1nc(-c2ccc3c(N)n[nH]c3c2)cc(N2C[C@@H](C(=O)NC3CCCCC3)CC[C@H]2C)n1` ?
Response: 99

Query: Quick check: residual activity of `O=C(NOC[C@H](O)CO)c1ccc(F)c(F)c1Nc1ccc(I)cc1Cl` ?
Response: 95

Query: Quick check: residual activity of `NS(=O)(=O)OC[C@@H]1C[C@@H](n2ccc3c(N[C@H]4CCc5ccccc54)ncnc32)C[C@@H]1O` ?
Response: 94

Query: Quick check: residual activity of `CC(C)(C#N)c1ccc(N2C(=O)OCc3cnc4ccc(-c5cnc6ccccc6c5)cc4c32)cc1` ?
Response: 98

Query: Quick check: residual activity of `CCNc1nc(Nc2cc(F)c(C(=O)N3CCOCC3)cc2OC)ncc1C(F)(F)F` ?
Response: 107

Query: Quick check: residual activity of `CN1C(=O)[C@@H](Cc2c[nH]c3ccccc23)NC1=S` ?
Response: 93

Query: Quick check: residual activity of `CCCCCc1ccc(/C=C/[C@H](O)[C@@H](CO)NC)cc1` ?
Response: 108

Query: Quick check: residual activity of `O=C1NC(=S)N[C@@H]1Cc1c[nH]c2ccccc12` ?
Response: 87

Query: Quick check: residual activity of C=C1C(=O)OC2C1CC/C(C)=C/CCC1(C)OC21 (stereo not given) ?
Response: 119

Query: Quick check: residual activity of `NC(=O)c1cc2c(-c3cccc(-c4ccccc4)c3)cnc(N)c2s1` ?
Response: 70

Query: Quick check: residual activity of `COc1cc2ncn(-c3cc(OCc4ccccc4S(C)(=O)=O)c(C#N)s3)c2cc1OC` ?
Response: 95

Query: Quick check: residual activity of `c1ccc2c(-c3cnn4cc(-c5ccc(N6CCNCC6)cc5)cnc34)ccnc2c1` ?
Response: 107

Query: Quick check: residual activity of `C[C@H]1CCCC(=O)CCC/C=C/c2cc(O)cc(O)c2C(=O)O1` ?
Response: 99

Query: Quick check: residual activity of `O=C(O)c1cc(N=Nc2ccc(S(=O)(=O)Nc3ccccn3)cc2)ccc1O` ?
Response: 99

Query: Quick check: residual activity of `CCn1c(-c2nonc2N)nc2cncc(CNC3CCNCC3)c21` ?
Response: 94

Query: Quick check: residual activity of `Cc1nc(-c2ccc(OCC(C)C)c(C#N)c2)sc1C(=O)O` ?
Response: 97

Query: Quick check: residual activity of `O=C(O)c1ccc(-c2c[nH]c3ncc(-c4ccccc4)cc23)cc1C1CCCC1` ?
Response: 103

Query: Quick check: residual activity of `Cc1cc(NC(=O)c2cccc(NC(=O)/C=C/CN(C)C)c2)ccc1Nc1nccc(-c2cccnc2)n1` ?
Response: 96

Query: Quick check: residual activity of `C=CC(=O)N1CCC[C@@H](n2nc(-c3ccc(Oc4ccccc4)cc3)c3c(N)ncnc32)C1` ?
Response: 97

Query: Quick check: residual activity of `NC(=O)c1ccc(-c2ccc(Oc3cncc4sc(-c5nn[nH]n5)cc34)cc2)cc1` ?
Response: 89

Query: Quick check: residual activity of `N#Cc1c(C2CCNCC2)cc(-c2c(O)cccc2OCC2CC2)nc1N` ?
Response: 89

----------
Molecular target: MAPK12 (human) (UniProt P53778)
Sequence (P53778 whole entry, looked up): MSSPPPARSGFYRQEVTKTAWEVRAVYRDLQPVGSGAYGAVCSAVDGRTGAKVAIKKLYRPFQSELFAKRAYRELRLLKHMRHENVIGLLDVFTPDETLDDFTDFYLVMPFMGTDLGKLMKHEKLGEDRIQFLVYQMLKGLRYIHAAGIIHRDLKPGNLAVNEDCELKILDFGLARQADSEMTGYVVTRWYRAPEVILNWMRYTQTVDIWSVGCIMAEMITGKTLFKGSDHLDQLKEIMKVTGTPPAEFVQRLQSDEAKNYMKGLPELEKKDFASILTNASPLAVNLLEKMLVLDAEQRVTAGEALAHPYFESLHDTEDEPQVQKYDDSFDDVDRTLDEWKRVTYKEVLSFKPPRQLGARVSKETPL
Assay: radiometric filter-binding kinase assay
Conditions: compound 10.0 µM
measured_quantity: residual activity (%)

Query: Quick check: residual activity of `CN1C(=O)[C@@H](Cc2c[nH]c3ccccc23)NC1=S` ?
Response: 101

Query: Quick check: residual activity of `CCCC(CCC)C(=O)O` ?
Response: 95

Query: Quick check: residual activity of Nc1cccc2c1CN(C1CCC(=O)NC1=O)C2=O (stereo unspecified) ?
Response: 108

Query: Quick check: residual activity of `O=C(O)c1cc(N=Nc2ccc(S(=O)(=O)Nc3ccccn3)cc2)ccc1O` ?
Response: 100

Query: Quick check: residual activity of `Cc1nc(-c2ccc(OCC(C)C)c(C#N)c2)sc1C(=O)O` ?
Response: 96

Query: Quick check: residual activity of `Cn1nc(Nc2ccc(F)cc2)c2c(N)ncnc21` ?
Response: 112

----------
Biological target: MARK4 (human) (UniProt Q96L34)
Sequence (Q96L34 whole entry, looked up): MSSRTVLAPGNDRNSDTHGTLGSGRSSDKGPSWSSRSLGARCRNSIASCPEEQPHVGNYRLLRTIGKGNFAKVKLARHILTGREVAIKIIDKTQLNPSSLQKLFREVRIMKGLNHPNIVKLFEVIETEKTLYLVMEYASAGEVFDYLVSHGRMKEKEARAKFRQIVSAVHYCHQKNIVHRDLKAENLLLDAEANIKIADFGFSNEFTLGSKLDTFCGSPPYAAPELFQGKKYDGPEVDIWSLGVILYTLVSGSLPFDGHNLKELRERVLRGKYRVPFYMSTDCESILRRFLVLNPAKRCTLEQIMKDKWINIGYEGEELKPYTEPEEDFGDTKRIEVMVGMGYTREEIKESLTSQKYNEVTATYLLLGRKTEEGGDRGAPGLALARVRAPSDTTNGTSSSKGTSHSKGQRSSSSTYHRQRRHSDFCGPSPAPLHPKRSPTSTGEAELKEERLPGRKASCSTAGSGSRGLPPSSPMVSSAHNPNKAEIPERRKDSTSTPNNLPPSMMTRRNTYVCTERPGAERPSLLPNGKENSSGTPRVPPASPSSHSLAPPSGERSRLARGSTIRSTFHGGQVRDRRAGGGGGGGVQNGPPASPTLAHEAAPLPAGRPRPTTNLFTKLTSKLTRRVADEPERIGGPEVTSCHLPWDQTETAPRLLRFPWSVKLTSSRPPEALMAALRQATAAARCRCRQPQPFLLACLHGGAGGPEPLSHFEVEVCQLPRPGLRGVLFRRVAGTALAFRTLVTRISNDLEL
Assay: radiometric filter-binding kinase assay
Settings: compound 1.0 µM
measured_quantity: residual activity (%)

Consider the following illustrative entries.
Query: Requested read-out residual activity, target or system MARK4 (human) (UniProt Q96L34), entry `O=c1c(O)c(-c2ccc(O)c(O)c2)oc2cc(O)c(O)c(O)c12`
Response: 34

Query: Requested read-out residual activity, target or system MARK4 (human) (UniProt Q96L34), entry `COc1ccc(-n2ncc3cnc(Nc4cc(OC)c(OC)c(OCCCN5CCN(C)CC5)c4)nc32)cc1`
Response: 24

Query: Requested read-out residual activity, target or system MARK4 (human) (UniProt Q96L34), entry `COc1ccc(N(C(=O)Nc2c(C)cccc2C)c2cc(Nc3ccc(N4CCN(C)CC4)cc3)ncn2)c(OC)c1`
Response: 67

Query: Requested read-out residual activity, target or system MARK4 (human) (UniProt Q96L34), entry `COc1cc2ncn(-c3cc(OCc4ccccc4S(C)(=O)=O)c(C#N)s3)c2cc1OC`
Response: 57

Query: Requested read-out residual activity, target or system MARK4 (human) (UniProt Q96L34), entry CC1=C(CO)C(=O)O[C@@H]([C@@H](C)[C@H]2CC[C@H]3[C@@H]4C[C@H]5O[C@]56[C@@H](O)C=CC(=O)[C@]6(C)C4CC[C@]23C)C1 (some centres undefined)
Response: 97

a = Cc1cccc(-c2nn(C(=S)Nc3ccccc3)cc2-c2ccnc3ccccc23)n1
b = Oc1ccc2ccccc2c1SSc1c(O)ccc2ccccc12
Query: Identify the entry with the smaller residual activity: a or b . Answer format: the label of the selected item.
Response: b
(b: 47%, a: 87%)

----------
Molecular target: FGFR1 (human) (UniProt P11362)
Sequence (P11362 whole entry, looked up): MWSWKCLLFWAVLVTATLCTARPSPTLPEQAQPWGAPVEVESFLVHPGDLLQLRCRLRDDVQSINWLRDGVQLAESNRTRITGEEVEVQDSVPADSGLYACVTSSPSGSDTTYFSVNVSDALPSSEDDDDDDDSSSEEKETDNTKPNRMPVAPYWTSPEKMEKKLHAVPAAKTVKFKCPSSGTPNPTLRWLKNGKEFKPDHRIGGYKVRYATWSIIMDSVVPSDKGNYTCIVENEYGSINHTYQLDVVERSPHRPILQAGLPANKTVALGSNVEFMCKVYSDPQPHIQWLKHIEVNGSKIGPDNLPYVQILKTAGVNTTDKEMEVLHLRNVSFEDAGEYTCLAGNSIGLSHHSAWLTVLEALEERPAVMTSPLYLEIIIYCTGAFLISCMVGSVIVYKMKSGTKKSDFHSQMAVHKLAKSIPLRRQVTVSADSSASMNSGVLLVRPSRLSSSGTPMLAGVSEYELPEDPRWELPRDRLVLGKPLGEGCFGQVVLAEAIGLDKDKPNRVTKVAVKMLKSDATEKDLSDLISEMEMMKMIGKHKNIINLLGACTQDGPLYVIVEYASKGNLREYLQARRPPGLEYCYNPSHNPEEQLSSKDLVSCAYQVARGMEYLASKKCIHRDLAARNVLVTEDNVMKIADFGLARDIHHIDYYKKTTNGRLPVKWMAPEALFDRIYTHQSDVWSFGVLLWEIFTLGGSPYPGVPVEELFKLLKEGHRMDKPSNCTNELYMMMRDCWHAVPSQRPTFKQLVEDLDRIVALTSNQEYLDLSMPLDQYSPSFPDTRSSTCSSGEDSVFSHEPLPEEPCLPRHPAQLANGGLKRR
Experiment: radiometric filter-binding kinase assay
Settings: compound 1.0 µM
measured_quantity: residual activity (%)

Consider the following illustrative entries.
Query: Quick check: residual activity of `Cc1cc(NC(=O)c2cccc(NC(=O)/C=C/CN(C)C)c2)ccc1Nc1nccc(-c2cccnc2)n1` ?
Response: 82

Query: Quick check: residual activity of `O=C(O)c1ccc(-c2c[nH]c3ncc(-c4ccccc4)cc23)cc1C1CCCC1` ?
Response: 77

Query: Quick check: residual activity of `O=C(NOC[C@H](O)CO)c1ccc(F)c(F)c1Nc1ccc(I)cc1Cl` ?
Response: 140

I = O=C(NCCCNc1nc(Nc2cccc(CN3CCOCC3)c2)ncc1C1CC1)C1CCC1
II = O=C(O)c1cc(N=Nc2ccc(S(=O)(=O)Nc3ccccn3)cc2)ccc1O
III = Oc1ccc2ccccc2c1SSc1c(O)ccc2ccccc12
IV = Cc1cccc(-c2nn(C(=S)Nc3ccccc3)cc2-c2ccnc3ccccc23)n1
Query: // ranking: key=residual activity, reverse=True Answer format: the labels, ordered as requested.
Response: II, I, IV, III
(II: 110%, I: 63%, IV: 37%, III: 24%)

----------
Target: PHKG1 (human) (UniProt Q16816)
Sequence (Q16816 whole entry, looked up): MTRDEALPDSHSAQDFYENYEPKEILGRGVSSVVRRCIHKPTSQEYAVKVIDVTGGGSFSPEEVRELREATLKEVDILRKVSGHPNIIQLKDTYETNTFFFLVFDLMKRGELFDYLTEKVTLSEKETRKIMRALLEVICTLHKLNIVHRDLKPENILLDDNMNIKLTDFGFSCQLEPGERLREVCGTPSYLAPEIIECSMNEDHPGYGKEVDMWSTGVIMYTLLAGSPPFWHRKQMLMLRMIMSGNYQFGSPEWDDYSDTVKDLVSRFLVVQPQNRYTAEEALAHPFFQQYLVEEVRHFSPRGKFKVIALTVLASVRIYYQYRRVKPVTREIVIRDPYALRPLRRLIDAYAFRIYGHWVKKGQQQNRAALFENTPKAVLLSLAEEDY
Assay: radiometric filter-binding kinase assay
Conditions: compound 10.0 µM
measured_quantity: residual activity (%)

Consider the following illustrative entries.
Query: Quick check: residual activity of `CCCCCc1ccc(/C=C/[C@H](O)[C@@H](CO)NC)cc1` ?
Response: 76

Query: Quick check: residual activity of CC(C)C[C@H](NC(=O)CNC(=O)c1cc(Cl)ccc1Cl)B1OC(=O)CC(CC(=O)O)(C(=O)O)O1 (some centres not stated) ?
Response: 44

Query: Quick check: residual activity of `C[C@H]1CCCC(=O)CCC/C=C/c2cc(O)cc(O)c2C(=O)O1` ?
Response: 86

Query: Quick check: residual activity of `CCCC(CCC)C(=O)O` ?
Response: 89

Query: Quick check: residual activity of `N#Cc1c(C2CCNCC2)cc(-c2c(O)cccc2OCC2CC2)nc1N` ?
Response: 59

1 = O=C(NOCC(O)CO)c1ccc(F)c(F)c1Nc1ccc(I)cc1Cl (configuration not stated)
2 = O=C(O)c1ccc(-c2c[nH]c3ncc(-c4ccccc4)cc23)cc1C1CCCC1
Query: Select one: 1 or 2 . Criterion: greater recorded residual activity. Answer format: the label of the selected item.
Response: 1
(1: 90%, 2: 0%)
